Reported T/C values follow for various compounds
Test system: Streptococcus pyogenes
PROTOCOL DETAILS: Growth inhibition of Streptococcus pyogenes UMAA2616 at 50 uM relative to control
Format: organism-based
RUN PARAMETERS: in vitro
Note: the reply should be a number with no unit written.

Hi! What's the reported T/C for `C=CCn1c(SCCOC)nc2c(c1=O)C(C)(C)Cc1cc(C(=O)O)ccc1-2` on Streptococcus pyogenes?
0.86

Entry `C=CCn1c(SCC(=O)OCC)nc2c(c1=O)C(C)(C)Cc1ccccc1-2` , system Streptococcus pyogenes: what T/C was measured?
1.01

State its T/C on Streptococcus pyogenes: `C=CCn1c(SCc2ccccc2)nc2c(c1=O)C1(CCCCC1)Cc1ccccc1-2`
0.96

Lab note: need T/C with Streptococcus pyogenes for entry `C=CCn1c(OCC)nc2c(c1=O)C1(CCCCC1)Cc1ccccc1-2` , please look it up.
1.02

Fill in the recorded T/C for this compound, with Streptococcus pyogenes as test system: `C=CCn1c(SCC)nc2c(c1=O)C(C)(C)Cc1cc(OCCOC)ccc1-2`
0.85

Can you look up T/C on Streptococcus pyogenes for `C=CCn1c(SCC)nc2c(c1=O)C(C)(C)Cc1ccc(OCCOC)cc1-2` ?
1.02

For the record `C=CCn1c(SCCO)nc2c(c1=O)C(C)(C)Cc1ccccc1-2` , what value of T/C is listed for Streptococcus pyogenes?
0.06

Request - read-out T/C | tested on Streptococcus pyogenes | compound `C=CCn1c(SCCOC)nc2c(c1=O)C1(CCCCC1)Cc1ccccc1-2`
0.99
